# assay-text: TNF-a-driven NF-kB reporter inhibitors, primary screen, selectivity assay for NOD1/NOD2 signaling inhibitor project, cell-based, HEK293T NF-kB-Luc, luminescence (AID 1852)
# measurement-setup: TNF-a induced, 14 h, at 4 µM, stronger effect = higher value
Hit rate of the full screen: of about 2,500 compounds, about 1,100 (44%) were called active. So high a share suggests a set chosen from earlier hits. This is one part of the list.
For each entry below, report its inhibition value.
Use % as the unit, but write only the number.

Problem: Looking for the measured inhibition of CSc1cccc(NS(=O)(=O)c2ccc(-c3coc(C)n3)cc2)c1 , can you help?
Solution: 24.6

Problem: Further, for Cn1nc([N+](=O)[O-])nc1Sc1cccc2cccnc12 ?
Solution: 31.7

Problem: Further, for CCN1/C(=C\c2ccc3cc(C)ccc3[n+]2CC)Sc2cc(C)c(C)cc21 ?
Solution: 65.4

Problem: Further, for C=CCn1nc([N+](=O)[O-])nc1Sc1cccc2cccnc12 ?
Solution: 95.9

Problem: Further, for O=C(CSC1=NNC(c2ccccn2)S1)Nc1ccccc1 (stereo not given) ?
Solution: 50.1

Problem: Further, for O=C(Nc1cc(C(F)(F)F)cc(C(F)(F)F)c1)Nc1cnn(-c2ccc([N+](=O)[O-])cc2)c1C(F)(F)F ?
Solution: 48.5

Problem: Further, for CC1CN(C(=O)/C=C/c2ccc([N+](=O)[O-])s2)CC(C)O1 (stereo not given) ?
Solution: 41

Problem: Further, for Nc1ncnc(Nc2ccccn2)c1[N+](=O)[O-] ?
Solution: 22.8

Problem: Further, for CC1(C)N=C(N)N=C(N)N1c1ccc(OCCCOc2ccccc2)c(Cl)c1 ?
Solution: 59.9

Problem: Further, for NC(=O)c1c(NC(=O)c2ccc([N+](=O)[O-])o2)sc2c1CCCC2 ?
Solution: -24.9

Problem: Further, for CC1CCCCN1c1ncnc(N)c1[N+](=O)[O-] (stereo not given) ?
Solution: 59.2

Problem: Further, for Cc1cc(C(=O)CSc2nc3ccccc3c(=O)n2C)c(C)n1CC1CCCO1 (stereo not given) ?
Solution: 65.9

Problem: Further, for CC1CCCN(c2ncnc3c2cnn3-c2ccc(Cl)cc2)C1 (stereo not given) ?
Solution: 45.4

Problem: Further, for O=C(CN1C(=O)c2cccnc2Oc2ccc(Cl)cc21)NCCCc1ccccc1 ?
Solution: 12

Problem: Further, for COc1ccc(CC(=O)Nc2cccc(-c3nnc(-c4ccc(C)cc4)o3)c2)cc1OC ?
Solution: 77.2

Problem: Further, for COc1ccccc1Nc1nc(NCC2CCCO2)c2ccccc2n1 (stereo not given) ?
Solution: 39.1

Problem: Further, for COc1ccc(CCN2CC(C(=O)N(C)CC(=O)Nc3cccc(F)c3)CC2=O)cc1OC (stereo not given) ?
Solution: 21.5

Problem: Further, for O=C(NC(NNc1ccc([N+](=O)[O-])cc1)(C(F)(F)F)C(F)(F)F)c1ccc(Cl)cc1 ?
Solution: 50.3

Problem: Further, for Cc1cc(C)nc(Sc2ccc([N+](=O)[O-])cc2[N+](=O)[O-])n1 ?
Solution: -34.5

Problem: Further, for Cc1ccc(NC(=O)CSc2nc(C)c(Cc3ccccc3)c(=O)[nH]2)cc1 ?
Solution: 20

---

# assay-text: TNF-a-driven NF-kB reporter inhibitors, primary screen, selectivity assay for NOD1/NOD2 signaling inhibitor project, cell-based, HEK293T NF-kB-Luc, luminescence (AID 1852)
# measurement-setup: TNF-a induced, 14 h, at 4 µM
About 1,100 (44%) of roughly 2,500 compounds were called active.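 Rule for the calls: active = inhibition above 50% at 4 µM in the single-point screen; inactive = inhibition of 50% or less.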 So high a share suggests a set chosen from earlier hits. The list shows a part of the results.
Respond only with the outcome that fits, drawn from yes (1) for active, no (0) for inactive

Problem: # outcome recorded in this test, key = N=C1SCC(=O)N1c1ncc(Cc2ccccc2Cl)s1
Solution: yes (1)

Problem: Further, for COc1ccccc1NC(=O)CSc1nnc(Cc2cccn2C)n1-c1ccc(F)cc1 ?
Solution: no (0)

Problem: Further, for COc1cccc(-c2nc(CS(=O)(=O)CC(=O)NCCc3ccccc3)c(C)o2)c1 ?
Solution: no (0)

Problem: Further, for Cc1nnc(N2CCCC(C(=O)Nc3cc(F)ccc3F)C2)c2nn(-c3ccccc3)c(C)c12 (stereo unspecified) ?
Solution: yes (1)

Problem: Further, for N=C1SCC(=O)N1c1ncc(Cc2cccc(Cl)c2)s1 ?
Solution: yes (1)

Problem: Further, for CSC(=S)N/N=C(\C)c1ccc(Br)cc1 ?
Solution: no (0)

Problem: Further, for C=CCNC(=S)N/N=C(\C)c1ccccn1 ?
Solution: yes (1)

Problem: Further, for COc1ccc(-n2c(Cc3cccn3C)nnc2SCC(=O)Nc2cccc(F)c2)cc1 ?
Solution: yes (1)

Problem: Further, for CC[C@H]1CN2CCc3cc(OC)c(OC)cc3[C@@H]2C[C@@H]1C[C@H]1NCCc2cc(OC)c(OC)cc21 ?
Solution: yes (1)

Problem: Further, for CC(C)C1Nc2c(O)cc(Cl)c([N+](=O)[O-])c2C2C=CCC21 (stereo unspecified) ?
Solution: yes (1)

Problem: Further, for COc1ccc(-n2c(Cc3cccn3C)nnc2SCC(=O)Nc2ccc(F)cc2)cc1 ?
Solution: no (0)

Problem: Further, for CC1Sc2ccc(S(=O)(=O)CCC(=O)N3CCN(c4ccccc4F)CC3)cc2NC1=O (stereo unspecified) ?
Solution: no (0)

Problem: Further, for CCN1CCN(Cc2ccc(NC(=O)c3ccc(C)c(NC(=O)C(=O)c4c[nH]c5ccccc45)c3)cc2C(F)(F)F)CC1 ?
Solution: no (0)

Problem: Further, for O=C1/C(=C/c2cccc([N+](=O)[O-])c2)CCc2ccccc21 ?
Solution: no (0)

Problem: Further, for Cc1ccc(Nc2nc3nonc3[nH]c2=O)cc1Cl ?
Solution: no (0)

Problem: Further, for O=C(Nc1sc2c(c1C(=O)O)CCCC2)c1ccc(Cl)cc1 ?
Solution: no (0)

---

# assay-text: TNF-a-driven NF-kB reporter inhibitors, primary screen, selectivity assay for NOD1/NOD2 signaling inhibitor project, cell-based, HEK293T NF-kB-Luc, luminescence (AID 1852)
# measurement-setup: TNF-a induced, 14 h, at 4 µM, stronger effect = higher value
The whole screen tested about 2,500 compounds, of which about 1,100 (44%) were called active. The set was probably picked from earlier hits. The list shows a part of the results.
readout-type: inhibition

Problem: Looking for the measured inhibition of NC(=S)N/N=C\c1c(OCc2ccccc2Cl)ccc2ccccc12 , can you help?
Solution: 66% (active)

Problem: Further, for COc1cccc(-c2coc3c(C)c4oc(=O)c(CCC(=O)O)c(C)c4cc23)c1 ?
Solution: 69.3% (active)

Problem: Further, for COc1ccc(-c2nnc(NC(=O)c3ccc(F)cc3)o2)cc1 ?
Solution: 102% (active)

---

# assay-text: TNF-a-driven NF-kB reporter inhibitors, primary screen, selectivity assay for NOD1/NOD2 signaling inhibitor project, cell-based, HEK293T NF-kB-Luc, luminescence (AID 1852)
# measurement-setup: TNF-a induced, 14 h, at 4 µM, stronger effect = higher value
Screen size: about 2,500 compounds; about 1,100 (44%) were called active. The set was probably picked from earlier hits. This is one part of the list.
readout-type: inhibition (%)
Use % as the unit, but write only the number.

Problem: Looking for the measured inhibition of COc1cc(/C=C/C(=O)c2ccc(C)cc2)ccc1OCC#N , can you help?
Solution: 19.5

Problem: Further, for CCOC(=O)c1sc2ccccc2c1OC(=O)c1ccc(C)cc1 ?
Solution: 17.4

Problem: Further, for CCCCC(=O)/C=C/n1c(=S)oc2ccccc21 ?
Solution: -6.6

Problem: Further, for COc1ccccc1[C@@H]1C(c2cccc(C)c2)=NN(c2ccccc2)[C@H]1C(=O)N1CCOC1=O ?
Solution: -11.7

Problem: Further, for Cn1cc([N+](=O)[O-])c(C(=O)Nc2cc(Oc3ccccc3)cc([N+](=O)[O-])c2)n1 ?
Solution: 73.2

Problem: Further, for CCOC(=O)C1=C(Cc2ccc(Cl)cc2)C(=O)c2ccccc2C1=O ?
Solution: 7.7

Problem: Further, for CCOC(=O)C1=C(c2ccc(OC)cc2)C(=O)c2ccccc2C1=O ?
Solution: 108

Problem: Further, for COc1cccc(/C=C/C(=O)c2ccc(NS(=O)(=O)c3ccc(C)cc3)cc2)c1 ?
Solution: 4.1

Problem: Further, for CCOC(=O)C1=C(Cc2ccc(F)cc2)C(=O)c2ccccc2C1=O ?
Solution: 90.8

Problem: Further, for CCCCCCCn1ccc(=N)cc1 ?
Solution: 20.9

Problem: Further, for CCCCCCCCCn1ccc(=N)cc1 ?
Solution: 76.4

Problem: Further, for CCOc1ccc(NC(=O)C2CCCN(S(=O)(=O)c3c(C)noc3C)C2)cc1 (stereo not drawn) ?
Solution: 49.2

Problem: Further, for Cc1ccc(-c2n[nH]c(=S)n2/N=C/c2ccncc2)cc1 ?
Solution: 4.6

All values here come from PubChem BioAssay AID1852.
